Hey, just so you know, these numbers are from patent US20240279241A1.

Measured IC50, listed per entry.
# measured target: KRAS G12D (Homo sapiens, UniProt P01116, G12D)
# Construct: Recombinant human RAS protein (2 nM)
# Sequence (P01116 1-188 isoform P01116-2 G12D): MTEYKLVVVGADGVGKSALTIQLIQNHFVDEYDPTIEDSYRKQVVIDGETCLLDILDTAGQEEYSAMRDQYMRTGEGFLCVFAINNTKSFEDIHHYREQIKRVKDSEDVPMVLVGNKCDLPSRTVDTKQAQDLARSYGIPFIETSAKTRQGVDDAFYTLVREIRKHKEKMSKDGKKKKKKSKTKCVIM
# experiment summary: HTRF nucleotide exchange assay (NEA), KRAS G12D
# measurement conditions: recombinant human KRAS G12D aa1-188, 2 nM; lowest class = % inhibition at 10 μM
test readout: IC50

[
  {
    "molecule": "Oc1cc(-c2ncc3c(NCC4CCOCC4)nc(OCC45CCCN4CCC5)nc3c2F)c2ccccc2c1",
    "test readout": "IC50",
    "reading": "100 to 10000 nM"
  },
  {
    "molecule": "C#Cc1c(F)ccc2cc(O)cc(-c3ncc4c(N5CCNC(=O)CC5)nc(OC[C@@]56CCCN5C[C@H](F)C6)nc4c3F)c12 (relative stereo)",
    "test readout": "IC50",
    "reading": "≤ 10 nM"
  },
  {
    "molecule": "O=C1CC2(CCN(c3nc(OCC45CCCN4CCC5)nc4c(F)c(-c5cc(O)cc6ccccc56)ncc34)CC2)CN1",
    "test readout": "IC50",
    "reading": "100 to 10000 nM"
  },
  {
    "molecule": "C#Cc1c(F)ccc2cc(O)cc(-c3ncc4c(N5CCC(O)CC5)nc(OC[C@@]56CCCN5C[C@H](F)C6)nc4c3F)c12 (relative stereo)",
    "test readout": "IC50",
    "reading": "≤ 10 nM"
  },
  {
    "molecule": "CC1CC(O)CCN1c1nc(OCC23CCCN2CCC3)nc2c(F)c(-c3cc(O)cc4ccccc34)ncc12 (stereo not drawn)",
    "test readout": "IC50",
    "reading": "10 to 100 nM"
  },
  {
    "molecule": "Oc1cc(-c2ncc3c(N4CCc5cn[nH]c5C4)nc(OCC45CCCN4CCC5)nc3c2F)c2ccccc2c1",
    "test readout": "IC50",
    "reading": "100 to 10000 nM"
  },
  {
    "molecule": "COC1CCCN(c2nc(OCC34CCCN3CCC4)nc3c(F)c(-c4cc(O)cc5ccccc45)ncc23)C1 (stereo not drawn)",
    "test readout": "IC50",
    "reading": "100 to 10000 nM"
  },
  {
    "molecule": "Oc1cc(-c2ncc3c(N4CCCOCC4)nc(OCC45CCCN4CCC5)nc3c2F)c2ccccc2c1",
    "test readout": "IC50",
    "reading": "≤ 10 nM"
  },
  {
    "molecule": "COC(C)CCNc1nc(OCC23CCCN2CCC3)nc2c(F)c(-c3cc(O)cc4ccccc34)ncc12 (stereo not drawn)",
    "test readout": "IC50",
    "reading": "100 to 10000 nM"
  },
  {
    "molecule": "Oc1cc(-c2ncc3c(N4CCOC5(CCCC5)C4)nc(OCC45CCCN4CCC5)nc3c2F)c2ccccc2c1",
    "test readout": "IC50",
    "reading": "100 to 10000 nM"
  },
  {
    "molecule": "Nc1nc2c(-c3ncc4c(N5CCCOCC5)nc(OCC56CCCN5CCC6)nc4c3F)cccc2s1",
    "test readout": "IC50",
    "reading": "100 to 10000 nM"
  },
  {
    "molecule": "CN1CCCN(c2nc(OCC34CCCN3CCC4)nc3c(F)c(-c4cc(O)cc5ccccc45)ncc23)CC1=O",
    "test readout": "IC50",
    "reading": "100 to 10000 nM"
  },
  {
    "molecule": "CC(C)(O)C1CCN(c2nc(OCC34CCCN3CCC4)nc3c(F)c(-c4cc(O)cc5ccccc45)ncc23)C1 (stereo not drawn)",
    "test readout": "IC50",
    "reading": "> 10000 nM"
  },
  {
    "molecule": "Oc1cc(-c2ncc3c(N4CCOCC4)nc(OCC45CCCN4CCC5)nc3c2F)c2ccccc2c1",
    "test readout": "IC50",
    "reading": "100 to 10000 nM"
  },
  {
    "molecule": "Oc1cc(-c2ncc3c(N4CCCC5(COC5)C4)nc(OCC45CCCN4CCC5)nc3c2F)c2ccccc2c1",
    "test readout": "IC50",
    "reading": "10 to 100 nM"
  },
  {
    "molecule": "O=C1CCN(c2nc(OCC34CCCN3CCC4)nc3c(F)c(-c4cc(O)cc5ccccc45)ncc23)CCN1",
    "test readout": "IC50",
    "reading": "10 to 100 nM"
  },
  {
    "molecule": "Oc1cc(-c2ncc3c(N4CCC5CCC(C4)O5)nc(OCC45CCCN4CCC5)nc3c2F)c2ccccc2c1 (stereo not drawn)",
    "test readout": "IC50",
    "reading": "100 to 10000 nM"
  },
  {
    "molecule": "COCCNc1nc(OCC23CCCN2CCC3)nc2c(F)c(-c3cc(O)cc4ccccc34)ncc12",
    "test readout": "IC50",
    "reading": "100 to 10000 nM"
  },
  {
    "molecule": "COCC(C)(C)CNc1nc(OCC23CCCN2CCC3)nc2c(F)c(-c3cc(O)cc4ccccc34)ncc12",
    "test readout": "IC50",
    "reading": "100 to 10000 nM"
  },
  {
    "molecule": "OCC1CCN(c2nc(OCC34CCCN3CCC4)nc3c(F)c(-c4cc(O)cc5ccccc45)ncc23)C1 (stereo not drawn)",
    "test readout": "IC50",
    "reading": "100 to 10000 nM"
  },
  {
    "molecule": "OCCCNc1nc(OCC23CCCN2CCC3)nc2c(F)c(-c3cc(O)cc4ccccc34)ncc12",
    "test readout": "IC50",
    "reading": "100 to 10000 nM"
  }
]
